- assayed_system: T1, human GFRα3 expressed with a C-terminal myc-myc-hexahistidine tag (human, UniProt O60609 32-374, biotinylated (sites not given) in ELISA format 2 and in the Octet cross-competition; not in SPR)
- T1 construct: also called hGFRα3-mmh; hGFRα3-mmH
- T1 sequence (O60609 other isoform, or with tags, fused parts or gaps limits assumed): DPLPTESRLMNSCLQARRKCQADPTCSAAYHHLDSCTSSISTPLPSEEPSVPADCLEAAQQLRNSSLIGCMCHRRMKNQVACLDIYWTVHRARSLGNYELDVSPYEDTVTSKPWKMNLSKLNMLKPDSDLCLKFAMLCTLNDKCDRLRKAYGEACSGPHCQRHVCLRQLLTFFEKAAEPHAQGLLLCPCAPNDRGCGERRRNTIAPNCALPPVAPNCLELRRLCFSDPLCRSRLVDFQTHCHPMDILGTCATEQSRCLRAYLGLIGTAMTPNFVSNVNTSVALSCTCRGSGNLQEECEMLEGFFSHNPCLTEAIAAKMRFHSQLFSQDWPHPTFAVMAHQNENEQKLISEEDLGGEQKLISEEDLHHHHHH
- experimental_protocol: SPR, Ab captured, 37C
- Source text: […]
observable: kon (M⁻¹ s⁻¹)
Write it as a number; the unit M⁻¹ s⁻¹ goes unstated.

Solved cases (2 shown):
{"binder": "H4H2294S (antibody, human IgG4, V domains shown, human IgG4 Fc (H4H)) VH: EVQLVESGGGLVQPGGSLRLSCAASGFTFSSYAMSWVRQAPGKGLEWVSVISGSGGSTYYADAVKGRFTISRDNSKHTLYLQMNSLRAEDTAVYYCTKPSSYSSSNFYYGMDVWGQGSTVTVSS VL: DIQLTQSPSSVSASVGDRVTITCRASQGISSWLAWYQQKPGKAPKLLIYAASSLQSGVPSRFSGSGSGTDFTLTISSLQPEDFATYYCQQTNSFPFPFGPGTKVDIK", "reported_value": 773000}
{"binder": "H4H2346S (antibody, human IgG4, V domains shown, human IgG4 Fc (H4H)) VH: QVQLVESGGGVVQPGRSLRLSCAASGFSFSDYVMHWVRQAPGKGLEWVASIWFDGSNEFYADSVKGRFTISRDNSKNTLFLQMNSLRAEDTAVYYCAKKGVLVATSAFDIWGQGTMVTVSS VL: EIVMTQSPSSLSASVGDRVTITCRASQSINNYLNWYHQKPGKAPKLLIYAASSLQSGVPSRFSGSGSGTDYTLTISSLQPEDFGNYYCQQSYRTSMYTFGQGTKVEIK", "reported_value": 419000}

Entry under review: H4H2357S (antibody, human IgG4, V domains shown, human IgG4 Fc (H4H)) VH: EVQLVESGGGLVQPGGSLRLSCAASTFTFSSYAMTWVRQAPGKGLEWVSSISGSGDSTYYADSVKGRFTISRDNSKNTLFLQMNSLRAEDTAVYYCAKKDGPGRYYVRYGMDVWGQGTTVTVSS VL: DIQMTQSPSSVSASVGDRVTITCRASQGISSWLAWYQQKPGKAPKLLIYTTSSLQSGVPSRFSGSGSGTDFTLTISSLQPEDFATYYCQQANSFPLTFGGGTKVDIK . Reported kon?
295000

Can you handle H4H2293P (antibody, human IgG4, V domains shown, human IgG4 Fc (H4H)) VH: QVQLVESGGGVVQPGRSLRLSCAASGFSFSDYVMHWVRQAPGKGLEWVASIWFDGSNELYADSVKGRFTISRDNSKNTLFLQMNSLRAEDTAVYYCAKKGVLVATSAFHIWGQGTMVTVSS VL: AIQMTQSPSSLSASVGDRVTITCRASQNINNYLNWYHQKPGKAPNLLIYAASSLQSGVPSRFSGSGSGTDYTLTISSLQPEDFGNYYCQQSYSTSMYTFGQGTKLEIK next?
781000

Can you handle H1M2236N (antibody, V domains shown, chimeric, human variable and mouse constant domains (H1M)) VH: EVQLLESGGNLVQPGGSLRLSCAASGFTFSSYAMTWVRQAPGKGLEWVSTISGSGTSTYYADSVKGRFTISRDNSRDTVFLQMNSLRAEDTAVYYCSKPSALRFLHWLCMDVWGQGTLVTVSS VL: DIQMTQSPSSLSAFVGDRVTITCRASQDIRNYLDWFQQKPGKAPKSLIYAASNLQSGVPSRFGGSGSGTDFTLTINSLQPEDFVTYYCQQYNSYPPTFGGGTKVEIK next?
1.03e+06

Can you handle H4H2344S (antibody, human IgG4, V domains shown, human IgG4 Fc (H4H)) VH: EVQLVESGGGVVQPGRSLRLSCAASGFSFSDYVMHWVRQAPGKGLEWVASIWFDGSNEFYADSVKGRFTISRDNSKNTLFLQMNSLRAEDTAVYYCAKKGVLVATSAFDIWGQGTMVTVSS VL: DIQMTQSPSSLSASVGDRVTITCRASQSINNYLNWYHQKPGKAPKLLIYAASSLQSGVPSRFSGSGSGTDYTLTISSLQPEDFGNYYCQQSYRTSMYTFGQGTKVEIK next?
280000

Can you handle H1M2243N (antibody, V domains shown, chimeric, human variable and mouse constant domains (H1M)) VH: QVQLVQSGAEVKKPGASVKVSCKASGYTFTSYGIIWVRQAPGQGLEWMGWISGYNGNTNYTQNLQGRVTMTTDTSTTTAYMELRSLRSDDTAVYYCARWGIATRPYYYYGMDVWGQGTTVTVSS VL: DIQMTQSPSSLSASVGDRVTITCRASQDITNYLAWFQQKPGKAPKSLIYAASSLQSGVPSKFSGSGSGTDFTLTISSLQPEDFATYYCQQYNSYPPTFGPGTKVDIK next?
137000

Can you handle H4H2243N2 (antibody, human IgG4, V domains shown, human IgG4 Fc (H4H)) VH: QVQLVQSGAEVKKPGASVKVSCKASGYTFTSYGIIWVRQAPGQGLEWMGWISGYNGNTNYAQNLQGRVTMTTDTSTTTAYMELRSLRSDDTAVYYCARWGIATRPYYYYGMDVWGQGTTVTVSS VL: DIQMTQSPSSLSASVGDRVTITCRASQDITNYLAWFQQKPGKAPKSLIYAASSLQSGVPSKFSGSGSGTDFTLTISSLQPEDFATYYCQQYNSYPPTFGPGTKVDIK next?
469000

Can you handle H4H2236N3 (antibody, human IgG4, V domains shown, human IgG4 Fc (H4H)) VH: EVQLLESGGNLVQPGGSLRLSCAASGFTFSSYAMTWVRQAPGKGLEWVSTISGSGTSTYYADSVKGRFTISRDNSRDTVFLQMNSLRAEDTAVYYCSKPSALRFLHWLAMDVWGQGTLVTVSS VL: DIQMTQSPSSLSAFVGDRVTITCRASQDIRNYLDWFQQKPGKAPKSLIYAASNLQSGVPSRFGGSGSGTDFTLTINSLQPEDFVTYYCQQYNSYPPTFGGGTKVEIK next?
1.96e+06

Can you handle H4H2354S (antibody, human IgG4, V domains shown, human IgG4 Fc (H4H); also called H4H2354S-1) VH: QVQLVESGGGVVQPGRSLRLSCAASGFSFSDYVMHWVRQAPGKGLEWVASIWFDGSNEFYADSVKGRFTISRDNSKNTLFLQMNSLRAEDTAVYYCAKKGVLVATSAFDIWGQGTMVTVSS VL: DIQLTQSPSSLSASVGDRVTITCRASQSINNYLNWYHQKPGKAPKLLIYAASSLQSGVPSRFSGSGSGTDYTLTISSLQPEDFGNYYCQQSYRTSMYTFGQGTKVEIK next?
281000
